assayComment: Evaluation of conversion rate to active form in buffer solution (Experimental Example 1)
Assay type: physicochemical
conditionLabel: pH6.5, 3 hr
Field: label. Allowed values: 1 (Production rate of Alvocidib < 90%) or 0 (Production rate of Alvocidib >= 90%).

Take a look at these entries with their results.
{"columns": ["compound", "groupLabel"],
 "data": [
  ["CNCCN(C)C(=O)Oc1cc(O)c2c(=O)cc(-c3ccccc3Cl)oc2c1[C@H]1CCN(C)C[C@H]1O [Comparative Example 14, reference compound]", 0],
  ["CCOC(=O)O[C@@H]1CN(C)CC[C@@H]1c1c(O)cc(O)c2c(=O)cc(-c3ccccc3Cl)oc12 [Comparative Example 3, reference compound]", 1],
  ["CN1CC[C@H](c2c(O)cc(O)c3c(=O)cc(-c4ccccc4Cl)oc23)[C@H](OC(=O)CN)C1 [Comparative Example 8, reference compound]", 1]
]}

### Prompt Given CC(C)[C@H](N)C(=O)O[C@@H]1CN(C)CC[C@@H]1c1c(O)cc(O)c2c(=O)cc(-c3ccccc3Cl)oc12 [Comparative Example 10, reference compound] , is recorded Production rate of Alvocidib strictly lower than 90%?
### Response 1

### Prompt Given CNC(=O)Oc1cc(O)c2c(=O)cc(-c3ccccc3Cl)oc2c1[C@H]1CCN(C)C[C@H]1O [Comparative Example 2, reference compound] , is recorded Production rate of Alvocidib strictly lower than 90%?
### Response 0

### Prompt Given CNC(=O)O[C@@H]1CN(C)CC[C@@H]1c1c(O)cc(O)c2c(=O)cc(-c3ccccc3Cl)oc12 [Comparative Example 5, reference compound] , is recorded Production rate of Alvocidib strictly lower than 90%?
### Response 1

---

assayComment: Evaluation of conversion rate to active form in buffer solution (Experimental Example 1)
Assay type: physicochemical
conditionLabel: pH7.4, 0 hr
readoutType: Production rate of Alvocidib
In your response, the unit should come after the numeric value.

### Prompt Provide Production rate of Alvocidib value for the following compound: CN1CC[C@H](c2c(O)cc(O)c3c(=O)cc(-c4ccccc4Cl)oc23)[C@H](OC(=O)[C@@H](N)CO)C1 [Comparative Example 9, reference compound]
### Response 5.6%

### Prompt Provide Production rate of Alvocidib value for the following compound: CNC(=O)O[C@@H]1CN(C)CC[C@@H]1c1c(O)cc(O)c2c(=O)cc(-c3ccccc3Cl)oc12 [Comparative Example 5, reference compound]
### Response 0.0%

### Prompt Provide Production rate of Alvocidib value for the following compound: CN1CC[C@H](c2c(O)cc(O)c3c(=O)cc(-c4ccccc4Cl)oc23)[C@H](OC(=O)c2ccccc2F)C1
### Response 1.4%

### Prompt Provide Production rate of Alvocidib value for the following compound: CCNC(=O)O[C@@H]1CN(C)CC[C@@H]1c1c(O)cc(O)c2c(=O)cc(-c3ccccc3Cl)oc12 [Comparative Example 4, reference compound]
### Response 1.8%

### Prompt Provide Production rate of Alvocidib value for the following compound: CC(C)[C@H](N)C(=O)O[C@@H]1CN(C)CC[C@@H]1c1c(O)cc(O)c2c(=O)cc(-c3ccccc3Cl)oc12 [Comparative Example 10, reference compound]
### Response 2.1%

### Prompt Provide Production rate of Alvocidib value for the following compound: CN1CC[C@H](c2c(OC(=O)N(C)CCN)cc(O)c3c(=O)cc(-c4ccccc4Cl)oc23)[C@H](O)C1 [Comparative Example 13, reference compound]
### Response 1.3%

### Prompt Provide Production rate of Alvocidib value for the following compound: CNCCN(C)C(=O)Oc1cc(O)c2c(=O)cc(-c3ccccc3Cl)oc2c1[C@H]1CCN(C)C[C@H]1O [Comparative Example 14, reference compound]
### Response 14.2%
